measurement notes: Selectivity index, ratio of IC50 for cytotoxicity against human HepG2 cells assessed to IC50 for antiplasmodial activity against synchronized ring stage Plasmodium falciparum 3D7 infected in human erythrocytes
Assay type: toxicity, cell-based
study conditions: read-out: Ratio IC50
measured attribute: selectivity ratio

item smiles	test value
O=C(NO)c1cnc(N2CCC3(CCN(Cc4csc5ccccc45)C3)CC2)nc1	18
O=C(NO)c1cnc(N2CCC3(CCN(Cc4ccccc4)C3)CC2)nc1	32
O=C(NO)c1cnc(N2CCC3(CCN(Cc4cc5ccccc5c5ccccc45)C3)CC2)nc1	20
O=C(NO)c1cnc(N2CCC3(CCN(Cc4ccncc4)C3)CC2)nc1	193
O=C(NO)c1cnc(N2CCC3(CCN(Cc4ccc5ccccc5c4)C3)CC2)nc1	56

----------
measurement notes: Selectivity index, ratio of IC50 for cytotoxicity against human HEK293T cells assessed to IC50 for antiplasmodial activity against synchronized ring stage Plasmodium falciparum 3D7 infected in human erythrocytes
Type: toxicity, cell-based
study conditions: read-out: Ratio IC50

item smiles	selectivity ratio
O=C(NO)c1cnc(N2CCC3(CCN(Cc4cc5ccccc5c5ccccc45)C3)CC2)nc1	48
O=C(NO)c1cnc(N2CCC3(CCN(Cc4c5ccccc5cc5ccccc45)C3)CC2)nc1	18
O=C(NO)c1cnc(N2CCC3(CCN(CC4CCCCC4)C3)CC2)nc1	122
O=C(NO)c1cnc(N2CCC3(CCN(Cc4ccccn4)C3)CC2)nc1	106
O=C(NO)c1cnc(N2CCC3(CCN(Cc4cccc5ccncc45)C3)CC2)nc1	26
Cl.Cn1cc(CN2CCC3(CCN(c4ncc(C(=O)NO)cn4)CC3)C2)c2cccnc21	132
Cl.Cn1cc(CN2CCC3(CCN(c4ncc(C(=O)NO)cn4)CC3)C2)c2ccncc21	180
O=C(NO)c1cnc(N2CCC3(CCN(Cc4cncc5ccccc45)C3)CC2)nc1	37
O=C(NO)c1cnc(N2CCC3(CCN(Cc4ccc5ccccc5n4)C3)CC2)nc1	57
O=C(NO)c1cnc(N2CCC3(CCN(Cc4cnc5ccccc5c4)C3)CC2)nc1	26

src = ChEMBL document CHEMBL4706683
